assay: NCI Yeast Anticancer Drug Screen. Data for the sgs1 mgt1 strain (AID 161);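 also: 0% = growth of cultures given vehicle only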; conditions: S. cerevisiae sgs1 mgt1 strain, at 50.0 µM, active compounds read high
This is part of a sample that, as a whole, favours compounds with a hit. Of some 79,000 tested, about 15% had one in any assay.
Property: growth inhibition; scope: individual molecules
Dear colleague, please return just the value in %, with no unit written.

CCCC1(C(=O)O)NC(=O)NC1=O (stereo not given) = -14.7
CC12CCCCC1C(C(C)(C)OC(=O)c1ccc([N+](=O)[O-])cc1)CC2 (stereo not given) = 17.4
Cc1c(/C=N/N(C)C)oc2c1cc(O)c1ncccc12 = 20.4
CC(C)(C)N(O)c1ccc(P(=O)(c2ccccc2)c2ccccc2)cc1 = 12.3

In: Respond only with growth inhibition recorded for O=C1OC(c2ccc(O)c(-c3ccccc3)c2)(c2ccc(O)c(-c3ccccc3)c2)c2c(Cl)c(Cl)c(Cl)c(Cl)c21
Out: 19.1
